- Test system: MDA-MB-435
- run description: NCI tumour cell line growth inhibition, 48 h
Where a name gives a salt, the structure may show the parent alone. Calls of active or inactive are those of the source. Rule as the data show it: active = GI50 up to about 1.1 µM and inactive = higher.
GI50 overview
quantity kind: GI50

| molecule | result |
| --- | --- |
| C=C(C)C1(Sc2ccc(OC)cc2)CC1 | 7.94 µM (inactive) |
| Cc1ccc2c(c1C)CC1(Cc3ccc(C)c(C)c3C1=O)C2=O (configuration not stated) | > 100 µM (inactive) |
| C[C@@H]1CC[C@@H]2[C@@H](C1)O[C@@H]([C@H](C)OCc1ccccc1)SC2(C)C | 30.3 µM (inactive) |
| COc1ccc(OC)c(-c2cc(=O)c3c(OC)c(OC)c(OC)c(OC)c3o2)c1 | 28 µM (inactive) |
| COc1cc(/C=C2\CCc3cc(OC)c(OC)cc3C2=O)cc(OC)c1 | 1.99 µM (inactive) |
| CC1(C)OCC(C2OC(=O)C(OCc3ccccc3)=C2OCc2ccccc2)O1 (configuration not stated) | 26.9 µM (inactive) |
| CCOC(=O)c1nc2ccccc2nc1Nc1ccc(Cl)c(Cl)c1 | > 100 µM (inactive) |
| COc1cccc(/N=C/c2cc(OC)c(OC)c(OC)c2)c1 | 18.8 µM (inactive) |
| COC(=O)C(Cc1ccccc1)OC(=O)C(N)CC(=O)O (configuration not stated) | 17.1 µM (inactive) |
| O=c1c2ccccc2sc2cccc(NCCCN3CCN(CCCNc4cccc5sc6ccccc6c(=O)c45)CC3)c12 | > 100 µM (inactive) |
| CSCCCNC(=O)c1csc(-c2csc(CCN)n2)n1 | > 100 µM (inactive) |
| O=c1[nH]n(Cc2ccccc2CCl)c2ccc([N+](=O)[O-])cc12 | 35.1 µM (inactive) |
| COC(=O)c1nc2c(C)c(O)c(O)c([C@H](C)CCC=C(C)C)c2o1 | 26.8 µM (inactive) |
| O=CN1CCN(C(=O)c2cc(Cl)cc(Cl)c2)C1=S | 14.2 µM (inactive) |
| CCc1nnc(S)n1/N=C\c1ccc(-c2ccccc2[N+](=O)[O-])o1 | 15.4 µM (inactive) |
| Nc1nc(SCCc2ccccc2)nc2nc3c(c(-c4ccccc4)c12)CCCC3 | > 100 µM (inactive) |
| O=C(CSc1nnc(SCC(=O)NN=C2CCCCC2)s1)NN=C1CCCCC1 | > 100 µM (inactive) |
| CCOC(=O)c1cc(Br)c(-c2onc(C)c2Br)[nH]1 | > 100 µM (inactive) |
| O=c1oc2ccc([N+](=O)[O-])cc2cc1Br | > 100 µM (inactive) |
| CN1[C@@H]2CC[C@H]1C[C@@H](OC(c1ccccc1)c1ccccc1)C2 [BENZTROPINE MESYLATE] | 13.9 µM (inactive) |
| O=C(NCP(=O)(c1ccccc1)c1ccccc1)OCc1ccccc1 | > 100 µM (inactive) |
| Cn1c2c(c3ccccc31)CCN1C(=O)CCC21 (configuration not stated) | > 10 µM (inactive) |
